# Test system: MDA-MB-231
# assayName: cell viability relative to vehicle unstimulated control (fraction); higher = more viable cells
# conditionParameters: pre-treatment time: 18 h then 24 h IFNg/TNF
recordedEndpoint: cell viability
Give bare numbers.

As a guide, the following entries are already answered.
INSERT INTO measurements (compound, valuereported) VALUES
  ('CC(=O)OC12COC1CC(O)C1(C)C(=O)C(O)C3=C(C)C(O)CC(O)(C(OC(=O)c4ccccc4)C21)C3(C)C (centres undefined) [10-Deacetylbaccatin III] (compound dose: 10 uM)', 0.999),
  ('CC(C)=CCC[C@](C)(O)[C@H]1CC[C@]2(C)[C@@H]1[C@H](O)C[C@@H]1[C@@]3(C)CC[C@H](O[C@@H]4O[C@H](CO)[C@@H](O)[C@H](O)[C@H]4O)C(C)(C)[C@@H]3CC[C@]12C [Ginsenoside Rh2] (compound dose: 10 uM)', 0.908),
  ('COc1cc2c3c(c1OC)-c1ccccc1C[C@H]3N(C)CC2 [Nuciferine] (compound dose: 10 uM)', 1.05);

Prompt line: State its cell viability for this compound: CC(C)[C@]12O[C@H]1[C@@H]1O[C@@]13[C@@]1(C)CCC4=C(COC4=O)[C@@H]1C[C@@H]1O[C@@]13C2=O [Triptonide] (compound dose: 10 uM)
Response line: 0.637

====

# System: MDA-MB-231
# assayName: cell viability relative to vehicle unstimulated control (fraction); higher = more viable cells
# conditionParameters: pre-treatment time: 18 h then 24 h IFNg/TNF
recordedEndpoint: cell viability
One number for each entry.

INSERT INTO results (compound, valuereported) VALUES
  ('O=C([O-])c1ccc[n+]([C@@H]2O[C@H](CO)[C@@H](O)[C@H]2O)c1 [Nicotinic acid riboside] (compound dose: 10 uM)', 0.784),
  ('COc1cc2c(cc1OC)-c1c3c(cc4c1[C@H](C2)N(C)CC4)OCO3 [Dicentrine] (compound dose: 10 uM)', 0.83),
  ('CC(=O)O[C@H]1[C@H]2[C@@H](OC(=O)Cc3ccccc3)[C@@H](C)C[C@]2(OC(C)=O)C(=O)/C(C)=C/[C@@H]2[C@H](CC[C@@]13CO3)C2(C)C [Euphorbiasteroid] (compound dose: 10 uM)', 0.981);

Consider the following items and state reported cell viability for each.
1. CC1=C[C@H]2[C@@]3(O)[C@H](C)[C@@H](O)[C@]4(O)[C@H]([C@@H]3C=C(CO)C[C@]2(O)C1=O)C4(C)C [Phorbol] (compound dose: 10 uM)
2. CN1C2CCC1CC(O)C2 (stereo unspecified) [Tropine] (compound dose: 10 uM)
3. CC(C)[C@]12O[C@H]1[C@@H]1O[C@]13[C@]1(O[C@H]1C[C@H]1C4=C(CC[C@@]13C)C(=O)OC4)[C@@H]2O [Triptolide] (compound dose: 10 uM)

Response line:
1.02
0.938
0.64

====

# System: MDA-MB-231
# assayName: kynurenine production, fold change vs DMSO IFNg/TNF control; higher = more kynurenine produced (less inhibition)
# conditionParameters: pre-treatment time: 18 h then 24 h IFNg/TNF
recordedEndpoint: kynurenine production
Numbers only.

INSERT INTO results (compound, valuereported) VALUES
  ('CC(C)=CCCC(C)(O)C1CCC2(C)C1C(O)CC1C3(C)CCC(OC4OC(CO)C(O)C(O)C4O)C(C)(C)C3CCC12C [20(R)-Ginsenoside Rh2] (compound dose: 10 uM)', 0.958),
  ('CO[C@H]1CCN2[C@@H]3C=CC4=CC(=O)O[C@]4(C3)[C@@H]2C1 [Securitinine] (compound dose: 10 uM)', 0.734);

Read the next record carefully.
Prompt line: State its kynurenine production for this compound: CC(=O)OC12COC1CC(O)C1(C)C(=O)C(O)C3=C(C)C(O)CC(O)(C(OC(=O)c4ccccc4)C21)C3(C)C (stereo not drawn) [10-Deacetylbaccatin III] (compound dose: 10 uM)
Response line: 0.849

====

# Tested on: MDA-MB-231
# assayName: cell viability relative to vehicle unstimulated control (fraction); higher = more viable cells
# conditionParameters: pre-treatment time: 18 h then 24 h IFNg/TNF
recordedEndpoint: cell viability
Numbers only.

Consider the following items and state reported cell viability for each.
1. COc1ccc(CC2c3cc(OC)c(OC)cc3CCN2C)cc1OC (stereo not drawn) [Laudanosine] (compound dose: 10 uM)
2. C=C[C@@H]1C2=CCOC(=O)C2=CO[C@H]1O[C@@H]1O[C@H](CO)[C@@H](O)[C@H](O)[C@H]1O [Gentiopicroside] (compound dose: 10 uM)
3. CC(C)=CCC[C@](C)(O)[C@H]1CC[C@]2(C)[C@@H]1[C@H](O)C[C@@H]1[C@@]3(C)CC[C@H](O)C(C)(C)[C@@H]3[C@@H](O[C@@H]3O[C@H](CO)[C@@H](O)[C@H](O)[C@H]3O)C[C@]12C [Ginsenoside Rh1] (compound dose: 10 uM)

Response line:
1.02
0.981
0.999

====

# Tested on: MDA-MB-231
# assayName: kynurenine production, fold change vs DMSO IFNg/TNF control; higher = more kynurenine produced (less inhibition)
# conditionParameters: pre-treatment time: 18 h then 24 h IFNg/TNF
Assign a class from recorded kynurenine production; defined classes: lower level: < 0.5; middle level: ≥ 0.5 and < 0.9; upper level: ≥ 0.9

INSERT INTO results (compound, classlabel) VALUES
  ('COc1cc2c3c(c1OC)-c1ccccc1C[C@H]3N(C)CC2 [Nuciferine] (compound dose: 10 uM)', 'upper level'),
  ('CC(C)[C@]12O[C@H]1[C@@H]1O[C@@]13[C@@]1(C)CCC4=C(COC4=O)[C@@H]1C[C@@H]1O[C@@]13C2=O [Triptonide] (compound dose: 10 uM)', 'lower level'),
  ('COc1ccc(CC2c3cc(OC)c(OC)cc3CCN2C)cc1OC (configuration not stated) [Laudanosine] (compound dose: 10 uM)', 'middle level'),
  ('C/C=C(\C)C(=O)N[C@@H](c1ccccc1)[C@@H](O)C(=O)O[C@H]1C[C@@]2(O)[C@@H](OC(=O)c3ccccc3)[C@@H]3[C@]4(OC(C)=O)CO[C@@H]4C[C@H](O)[C@@]3(C)C(=O)[C@H](OC(C)=O)C(=C1C)C2(C)C [Cephalomannine] (compound dose: 10 uM)', 'lower level'),
  ('CC(C)=CCC[C@](C)(O)[C@H]1CC[C@]2(C)[C@@H]1[C@H](O)C[C@@H]1[C@@]3(C)CC[C@H](O[C@@H]4O[C@H](CO)[C@@H](O)[C@H](O)[C@H]4O)C(C)(C)[C@@H]3CC[C@]12C [Ginsenoside Rh2] (compound dose: 10 uM)', 'middle level');

Prompt line: Form field 'band' for C=C1[C@H](OC(=O)c2ccccc2)C[C@H]2[C@@H](/C=C(\C)C(=O)[C@@]3(OC(C)=O)C[C@H](C)[C@H](OC(=O)c4ccccc4)[C@@H]3[C@H]1OC(C)=O)C2(C)C [Euphorbia factor L2] (compound dose: 10 uM)
Response line: lower level

Prompt line: Form field 'band' for CC(=O)OC(C)(C)/C=C/C(=O)[C@](C)(O)[C@H]1[C@H](O)C[C@@]2(C)[C@@H]3CC=C4[C@@H](C=C(O)C(=O)C4(C)C)[C@]3(C)C(=O)C[C@]12C [Cucurbitacin E] (compound dose: 10 uM)
Response line: lower level

====

# System: MDA-MB-231
# assayName: kynurenine production, fold change vs DMSO IFNg/TNF control; higher = more kynurenine produced (less inhibition)
# conditionParameters: pre-treatment time: 18 h then 24 h IFNg/TNF
Where a name gives a salt, the structure may show the parent alone.
Assign a class from recorded kynurenine production; defined classes: class A: < 0.7; class B: ≥ 0.7 and < 0.9; class C: ≥ 0.9

Below are worked cases with known answers.
INSERT INTO results (compound, systemname, classlabel) VALUES
  ('C=C1[C@H](OC(=O)c2ccccc2)C[C@H]2[C@@H](/C=C(\C)C(=O)[C@@]3(OC(C)=O)C[C@H](C)[C@H](OC(=O)c4ccccc4)[C@@H]3[C@H]1OC(C)=O)C2(C)C [Euphorbia Factor L2] (compound dose: 10 uM)', 'MDA-MB-231', 'class A'),
  ('CC(=O)OC(C)(C)/C=C/C(=O)[C@](C)(O)[C@H]1[C@H](O)C[C@@]2(C)[C@@H]3CC=C4[C@H](C[C@H](O)C(=O)C4(C)C)[C@]3(C)C(=O)C[C@]12C [Cucurbitacin B] (compound dose: 10 uM)', 'MDA-MB-231', 'class A'),
  ('CN1[C@@H]2CC[C@H]1C[C@@H](OC(=O)[C@H](CO)c1ccccc1)C2 [Hyoscyamine hydrobromide] (compound dose: 10 uM)', 'MDA-MB-231', 'class B'),
  ('CC1=C2[C@H]3OC(=O)[C@@H](C)[C@@H]3CC[C@@]2(C)C=CC1=O [Santonin] (compound dose: 10 uM)', 'MDA-MB-231', 'class C'),
  ('CC(C)c1ccc2c(c1O)CC[C@H]1C3=C(CC[C@]21C)C(=O)OC3 [Triptophenolide] (compound dose: 10 uM)', 'MDA-MB-231', 'class B');

Prompt line: Form field 'band' for CC(C)[C@]12CC(=O)[C@H](C)[C@H]1C2 [α-Thujone] (compound dose: 10 uM)
Response line: class C
